# Test system: HepG2 cells
# PROTOCOL DETAILS: Measurement of triglyceride synthesis inhibitory ability
# Type: cell-based
# SETTINGS: 500 μM compound, 24 hours, HepG2 cells; content of triglyceride formed; lower value = stronger inhibition
# Triglyceride (500 μM) aver. annotations
QUANTITY MEASURED: Triglyceride (500 μM) aver.

MOLECULE: Cl.N=C(N)NC(=NC1CCCCCC1)NCc1ccc2c(c1)OCO2 [Example 20]
SYSTEM UNDER TEST: HepG2 cells
QUANTITY MEASURED: Triglyceride (500 μM) aver.
VALUE: 41.32
--
MOLECULE: Cl.N=C(N)NC(=NC12CC3CC(CC(C3)C1)C2)NCc1ccc2c(c1)OCO2 [Example 27]
SYSTEM UNDER TEST: HepG2 cells
QUANTITY MEASURED: Triglyceride (500 μM) aver.
VALUE: 11.48
--
MOLECULE: CCCCCCc1ccc(N=C(NCc2ccc3c(c2)OCO3)NC(=N)N)cc1.Cl [Example 25]
SYSTEM UNDER TEST: HepG2 cells
QUANTITY MEASURED: Triglyceride (500 μM) aver.
VALUE: 35.53
--
MOLECULE: COCCN=C(NCc1ccc2c(c1)OCO2)NC(=N)N.Cl [Example 31]
SYSTEM UNDER TEST: HepG2 cells
QUANTITY MEASURED: Triglyceride (500 μM) aver.
VALUE: 73.00
--
MOLECULE: Cl.N=C(NCc1ccc2c(c1)OCO2)NC(=N)NCC1CC1 [Example 21]
SYSTEM UNDER TEST: HepG2 cells
QUANTITY MEASURED: Triglyceride (500 μM) aver.
VALUE: 83.07
--
MOLECULE: CCCCN=C(NCc1ccc2c(c1)OCO2)NC(=N)N.Cl [Example 39]
SYSTEM UNDER TEST: HepG2 cells
QUANTITY MEASURED: Triglyceride (500 μM) aver.
VALUE: 64.23
--
MOLECULE: COc1cc(N=C(NCc2ccc3c(c2)OCO3)NC(=N)N)cc(OC)c1OC.Cl [Example 24]
SYSTEM UNDER TEST: HepG2 cells
QUANTITY MEASURED: Triglyceride (500 μM) aver.
VALUE: 60.08
--
MOLECULE: CCCCCN=C(NCc1ccc2c(c1)OCO2)NC(=N)N.Cl [Example 40]
SYSTEM UNDER TEST: HepG2 cells
QUANTITY MEASURED: Triglyceride (500 μM) aver.
VALUE: 50.00
--
MOLECULE: CC(C)N=C(NCc1ccc2c(c1)OCO2)NC(=N)N.Cl [Example 22]
SYSTEM UNDER TEST: HepG2 cells
QUANTITY MEASURED: Triglyceride (500 μM) aver.
VALUE: 60.13

* * *

# Cholesterol (100 μM) aver. annotations
# Test system: HepG2 cells
# PROTOCOL DETAILS: Measurement of cholesterol synthesis inhibitory ability
# Format: cell-based
# SETTINGS: 100 μM compound, 24 hours, HepG2 cells; content of cholesterol formed; lower value = stronger inhibition
Structures can show the parent of a compound that is named as a salt.
QUANTITY MEASURED: Cholesterol (100 μM) aver.

COMPOUND: COc1ccc(CN=C(NCc2ccc3c(c2)OCO3)NC(=N)N)cc1.Cl [Example 37]
QUANTITY MEASURED: Cholesterol (100 μM) aver.
VALUE: 60.36
//
COMPOUND: Cl.N=C(NCc1ccc2c(c1)OCO2)NC(=N)Nc1ccc(-c2ccccc2)cc1 [Example 35]
QUANTITY MEASURED: Cholesterol (100 μM) aver.
VALUE: 9.93
//
COMPOUND: COc1cc(N=C(NCc2ccc3c(c2)OCO3)NC(=N)N)cc(OC)c1.Cl [Example 26]
QUANTITY MEASURED: Cholesterol (100 μM) aver.
VALUE: 61.86
//
COMPOUND: COc1ccc(N=C(NCc2ccc3c(c2)OCO3)NC(=N)N)cc1.Cl [Example 15]
QUANTITY MEASURED: Cholesterol (100 μM) aver.
VALUE: 52.95
//
COMPOUND: Cl.N=C(N)NC(=NCc1ccccc1)NCc1ccc2c(c1)OCO2 [Example 5]
QUANTITY MEASURED: Cholesterol (100 μM) aver.
VALUE: 30.3
//
COMPOUND: CC(C)CN=C(NCc1ccc2c(c1)OCO2)NC(=N)N.Cl [Example 23]
QUANTITY MEASURED: Cholesterol (100 μM) aver.
VALUE: 68.02
//
COMPOUND: CCCCCCN=C(NCc1ccc2c(c1)OCO2)NC(=N)N.Cl [Example 6]
QUANTITY MEASURED: Cholesterol (100 μM) aver.
VALUE: 31.8
//
COMPOUND: Cl.N=C(N)NC(=Nc1cc(Cl)cc(Cl)c1)NCc1ccc2c(c1)OCO2 [Example 34]
QUANTITY MEASURED: Cholesterol (100 μM) aver.
VALUE: 15.56
//
COMPOUND: N=C(N)NC(=NCCc1ccccc1)NCc1ccc2c(c1)OCO2 [Example 7, hydrochloride]
QUANTITY MEASURED: Cholesterol (100 μM) aver.
VALUE: 23.6
//
COMPOUND: Cl.N=C(N)NC(=Nc1cccc(C(F)(F)F)c1)NCc1ccc2c(c1)OCO2 [Example 10]
QUANTITY MEASURED: Cholesterol (100 μM) aver.
VALUE: 33.41
//
COMPOUND: Cl.N=C(N)NC(=NC1CCCC1)NCc1ccc2c(c1)OCO2 [Example 19]
QUANTITY MEASURED: Cholesterol (100 μM) aver.
VALUE: 57.58

* * *

# Triglyceride (500 μM) aver. annotations
# Tested on: HepG2 cells
# PROTOCOL DETAILS: Measurement of triglyceride synthesis inhibitory ability
# Assay type: cell-based
# SETTINGS: 500 μM compound, 24 hours, HepG2 cells; content of triglyceride formed; lower value = stronger inhibition
# Procedure: 2 mM metformin was used as a comparative compound for each of the plates (control group). HepG2 cells (ATCC: American Type Culture Collection) were cultured in 1% serum-containing media (DMEM (Gibco), FBS (Gibco)) for 24 hours, and then treated with 100 μM or 500 μM of each of the compounds prepared in Examples for 24 hours. […] After completion of the reaction, the content of triglyceride formed in the cell lysates was measured at a wavelength of 560/590 nm (ex/em) using a fluorescence microscope. […]
QUANTITY MEASURED: Triglyceride (500 μM) aver.

SMILES TEXT: Cl.N=C(N)NC(=Nc1cc(Cl)cc(Cl)c1)NCc1ccc2c(c1)OCO2
VALUE: 8.80
--
SMILES TEXT: Cl.N=C(N)NC(=Nc1ccccc1)NCc1ccc2c(c1)OCO2
VALUE: 35.45
--
SMILES TEXT: Cl.N=C(N)NC(=NCc1ccccc1)NCc1ccc2c(c1)OCO2
VALUE: 15.7

Reference for the values: patent US8642647B2
